# target.entity: Gal4 DNA binding domain fused to the LBD of LXRα in HEK293 cells (Homo sapiens (Human), UniProt Q13133)
# Sequence (Q13133 209-447): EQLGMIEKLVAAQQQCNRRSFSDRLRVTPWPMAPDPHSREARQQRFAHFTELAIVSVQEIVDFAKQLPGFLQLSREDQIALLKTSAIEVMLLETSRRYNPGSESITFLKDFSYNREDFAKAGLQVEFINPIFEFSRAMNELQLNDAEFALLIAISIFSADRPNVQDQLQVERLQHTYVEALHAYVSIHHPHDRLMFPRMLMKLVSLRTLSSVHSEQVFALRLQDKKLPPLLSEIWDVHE
# assay.info: LXR luciferase transcriptional reporter gene assay, agonist mode, LXRα
# Format: cell-based
# test.settings: read-out: Cell LXRα EC50
pEC50: −log10 of the molar value.
Label true (1) when pEC50 is at or above 6; otherwise label false (0).

Record excerpt, results attached:
compound | class.name
CS(=O)(=O)c1cccc(N2CCN(C[C@H]3CC[C@H](C(F)(F)F)CC3)[C@H](c3ccccc3Cl)C2)c1 (single isomer, unassigned) | false (0)
CC(C)[C@H]1CN(c2cccc(S(C)(=O)=O)c2)CCN1CC1CCC(C(F)(F)F)N(C)C1 (stereo partly shown) | true (1)
CC(C)(O)[C@@H]1CN(c2cccc(S(C)(=O)=O)c2)CCN1c1nccc(C(F)(F)F)n1 | false (0)

Q: Has CC(C)[C@H]1CN(c2ccc(CO)c(S(C)(=O)=O)c2)CCN1CC1CCC(O)(C(F)(F)F)CC1 (stereo partly shown) a recorded pEC50 greater than or equal to 6?
Result: true (1)

Q: Queued: NS(=O)(=O)c1cccc(N2CCN(C[C@H]3CC[C@H](C(F)F)CC3)[C@@H](c3ccccc3)C2)c1 (single isomer, unassigned)
Result: false (0)

====

# target.entity: Gal4 DNA binding domain fused to the LBD of LXRβ in HEK293 cells (Homo sapiens (Human))
# Sequence (P55055 222-460 limits assumed): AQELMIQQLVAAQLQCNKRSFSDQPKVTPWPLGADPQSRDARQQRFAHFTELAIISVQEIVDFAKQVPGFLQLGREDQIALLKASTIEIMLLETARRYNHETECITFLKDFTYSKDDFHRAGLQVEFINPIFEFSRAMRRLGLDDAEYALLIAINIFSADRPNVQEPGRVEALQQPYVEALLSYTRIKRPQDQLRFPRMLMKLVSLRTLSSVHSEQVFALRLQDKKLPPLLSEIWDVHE
# assay.info: cell-based
pEC50: −log10 of the molar value.
Label criterion met when pEC50 is at or above 7; otherwise label criterion not met.

compound | target.entity | class.name
CC(C)[C@@H]1CN(c2ccc(F)c(S(C)(=O)=O)c2)CCN1c1ncc(C(=O)N(C)C2CN(C(=O)OC(C)(C)C)C2)c(C(F)(F)F)n1 | Gal4 DNA binding domain fused to the LBD of LXRβ in HEK293 cells (Homo sapiens (Human)) | criterion not met
CS(=O)(=O)c1cccc(N2CCN(Cc3ccc(C(F)(F)F)cc3)[C@H](c3ccccc3)C2)c1 (single isomer, unassigned) | Gal4 DNA binding domain fused to the LBD of LXRβ in HEK293 cells (Homo sapiens (Human)) | criterion not met
CC(C)[C@@H]1CN(c2ccc(F)c(S(C)(=O)=O)c2)CCN1c1ncc(C(=O)N2CCOCC2)c(C(F)(F)F)n1 | Gal4 DNA binding domain fused to the LBD of LXRβ in HEK293 cells (Homo sapiens (Human)) | criterion not met
CS(=O)(=O)c1cccc(N2CCN(C[C@@H]3CCC(C(F)(F)F)OC3)[C@@H](c3ccc(F)cc3)C2)c1 (single isomer, unassigned) | Gal4 DNA binding domain fused to the LBD of LXRβ in HEK293 cells (Homo sapiens (Human)) | criterion not met
C=C(C)c1cnc(N2CCN(c3ccc(CO)c(S(C)(=O)=O)c3)C[C@H]2C(C)C)nc1C(F)(F)F | Gal4 DNA binding domain fused to the LBD of LXRβ in HEK293 cells (Homo sapiens (Human)) | criterion met

Q: Has CCOC(=O)c1cnc(N2CCN(c3cccc(S(C)(=O)=O)c3)C[C@H]2c2nc(C)cs2)nc1C(F)(F)F a recorded pEC50 greater than or equal to 7?
Result: criterion not met

Q: Queued: CS(=O)(=O)c1cc(N2CCN(C[C@H]3CC[C@@H](C(F)(F)F)CC3)[C@H](c3ccccc3Cl)C2)ccc1C(N)=O (single isomer, unassigned)
Result: criterion not met

Q: Queued: CC(C)[C@@H]1CN(c2cccc(S(C)(=O)=O)c2)CCN1c1ccc(C(C)(F)F)cn1
Result: criterion not met

Q: Queued: CC(C)[C@H]1CN(c2cccc(S(C)(=O)=O)c2)CCN1C(=O)OC(C)(C)C
Result: criterion not met

Q: Queued: CC(C)(O)[C@@H]1CN(c2cccc(S(C)(=O)=O)c2)CCN1c1nccc(C(F)(F)F)n1
Result: criterion not met
